# Assayed system: T1, IL-10R1-Fc (UniProt Q13651 22-235, limits assumed)
# T1 sequence (looked up): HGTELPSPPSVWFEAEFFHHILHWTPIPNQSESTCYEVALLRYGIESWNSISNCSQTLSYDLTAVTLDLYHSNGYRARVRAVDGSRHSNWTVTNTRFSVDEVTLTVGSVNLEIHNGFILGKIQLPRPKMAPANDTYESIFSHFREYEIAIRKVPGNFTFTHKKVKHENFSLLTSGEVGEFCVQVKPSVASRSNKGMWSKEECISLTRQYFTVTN
# Protocol text: ELISA, IL-10R1-Fc coated
Here the recorded Binding recovery (>60%) is given for each entry.
Record the value in %, omitting the unit from your answer.

Binder	Binding recovery (>60%)
IL-10 Glu142Cys-R4-12 (ligand, human, UniProt P22301 19-178, looked up, R4-12 on Cys 142, mature) SPGQGTQSENSCTHFPGNLPNMLRDLRDAFSRVKTFFQMKDQLDNLLLKESLLEDFKGYLGCQALSEMIQFYLEEVMPQAENQDPDIKAHVNSLGENLKTLRLRLRRCHRFLPCENKSKAVEQVKNAFNKLQEKGIYKAMSCFDIFINYIEAYMTMKIRN	78

# Binding recovery (>60%) (binder: IL-10 Leu46Cys-R4-6 (ligand, human, UniProt P22301 19-178, looked up, R4-6 on Cys 46, mature) SPGQGTQSENSCTHFPGNLPNMLRDLRDAFSRVKTFFQMKDQLDNCLLKESLLEDFKGYLGCQALSEMIQFYLEEVMPQAENQDPDIKAHVNSLGENLKTLRLRLRRCHRFLPCENKSKAVEQVKNAFNKLQEKGIYKAMSEFDIFINYIEAYMTMKIRN ) is 89.6
